- System: Colo205 cells
- Experiment notes: Analysis of Cell Proliferation, 3H thymidine incorporation
- Type: cell-based
- Setup conditions: Homo sapiens, COLO 205, 96 h, 96 hours, read-out: IC50 cell proliferation after 96 hours
- Experimental: Compounds were screened for their ability to inhibit cell proliferation using Colo205 cells obtained from ECACC and using the assay shown below. […] To measure proliferation, 3 h prior to the end of the experiment 0.5 μCi of 3H thymidine was added to each well. Cells were then harvested and the incorporated radioactivity counted on a Wallac microplate beta-counter. Dose response curves were calculated using either Prism 3.0 (GraphPad) or SoftMax Pro 4.3.1 LS (Molecular Devices) software.
Examples of compounds with documented IC50 follow.

// solved cases for IC50 follow
• CCC(=O)Nc1ccc(Sc2nc(Nc3cc(C)n[nH]3)cc(N3CCC(N4CCOCC4)CC3)n2)cc1 [Compound I-40] = ≤ 50 nM
• Cc1cnc(Nc2cc(N3CC[C@@H](N4CCCC4)C3)nc(Sc3ccc(NC(=O)C4CC4)cc3)n2)s1 [Compound I-37] = ≤ 50 nM
• Cc1cnc(Nc2cc(N3CC4CCCNC4C3)nc(Sc3ccc(NC(=O)C4CC4)cc3)n2)s1 (centres unmarked) [Compound I-59] = ≤ 50 nM

Here is the next item to consider.
Given the entry CCC(=O)Nc1ccc(Sc2nc(Nc3cc(C)n[nH]3)cc(N3CC[C@H](NC)C3)n2)cc1 [Compound I-22] , report its measured IC50. 50 to 200 nM
